Recorded IC50 by entry
- TESTED_TARGET: Akt1 (Homo sapiens, UniProt P31749)
- Construct: made in house; host or cells: Sf9 insect cells (baculovirus, pBlueBacHis2B)
- Sequence (P31749 whole entry): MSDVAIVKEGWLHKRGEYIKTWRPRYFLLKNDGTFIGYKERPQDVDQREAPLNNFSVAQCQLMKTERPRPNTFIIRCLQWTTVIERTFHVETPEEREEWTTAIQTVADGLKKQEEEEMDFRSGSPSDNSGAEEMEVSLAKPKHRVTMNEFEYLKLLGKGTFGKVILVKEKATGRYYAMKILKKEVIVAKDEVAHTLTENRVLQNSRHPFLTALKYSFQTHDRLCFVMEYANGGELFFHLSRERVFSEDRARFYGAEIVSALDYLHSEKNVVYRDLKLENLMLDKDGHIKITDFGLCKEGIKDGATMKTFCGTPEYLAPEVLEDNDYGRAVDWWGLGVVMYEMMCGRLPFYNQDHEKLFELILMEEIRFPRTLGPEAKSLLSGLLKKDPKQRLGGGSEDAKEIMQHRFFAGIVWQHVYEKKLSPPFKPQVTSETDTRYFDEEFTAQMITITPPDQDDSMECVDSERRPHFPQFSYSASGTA
- EXPERIMENT_DESCRIPTION: Akt1 kinase assay (33P phosphorylation of biotinylated peptide, Flash plates)
- Type: biochemical
- CONDITION_DESCRIPTION: read-out: IC50 rating (AKT1 inhibition)

# MOLECULE, TESTED_TARGET, IC50
data = [
    ("c1ccc(C[C@H]2CN(c3cnnc(-c4ccc5[nH]nc(-c6ccccc6)c5c4)n3)CCN2)cc1", "Akt1 (Homo sapiens, UniProt P31749)", "> 1000 nM"),
    ("CCc1n[nH]c2ccc(-c3nncc(N4CCNCC4)n3)cc12", "Akt1 (Homo sapiens, UniProt P31749)", "> 1000 nM"),
    ("Cc1n[nH]c2ccc(-c3nnc(N)c(N4CCN[C@@H](C(C)C)C4)n3)cc12", "Akt1 (Homo sapiens, UniProt P31749)", "< 100 nM"),
    ("Cc1n[nH]c2ccc(-c3nnc(Cl)c(N4CCN5CCCC5C4)n3)cc12 (centres unmarked)", "Akt1 (Homo sapiens, UniProt P31749)", "> 1000 nM"),
    ("Cc1n[nH]c2ccc(-c3nncc(N4CCC(Cc5ccccc5)C4)n3)cc12 (centres unmarked)", "Akt1 (Homo sapiens, UniProt P31749)", "100 to 1000 nM"),
]

====

- TESTED_TARGET: Akt1 (Homo sapiens, UniProt P31749)
- Construct: made in house; host or cells: Sf9 insect cells (baculovirus, pBlueBacHis2B)
- EXPERIMENT_DESCRIPTION: Akt1 kinase assay (33P phosphorylation of biotinylated peptide, Flash plates)
- Format: biochemical
- CONDITION_DESCRIPTION: read-out: IC50 rating (AKT1 inhibition)
pIC50: −log10 of the molar value.

# MOLECULE, pIC50
measured = [
    ("Cc1n[nH]c2ccc(-c3nnc(Cl)c(N4CCN[C@@H](Cc5c[nH]c6ccccc56)C4)n3)cc12", "< 6.00"),
    ("Cc1n[nH]c2ccc(-c3nncc(N4CCN[C@H](c5ccccc5)C4)n3)cc12", "6.00 to 7.00"),
    ("Cc1n[nH]c2ccc(-c3nnc(NCc4ccccc4)c(N4CCNCC4)n3)cc12", "> 7.00"),
    ("Cc1n[nH]c2ccc(-c3nnc(Cl)c(N4CCCC(CN)C4)n3)cc12 (stereo not drawn)", "6.00 to 7.00"),
    ("Cc1n[nH]c2ccc(-c3nncc(N4CCN(CCO)[C@@H](Cc5ccccc5)C4)n3)cc12", "6.00 to 7.00"),
    ("Cc1n[nH]c2ccc(-c3nnc(N)c(N4CCN[C@@H](Cc5ccccc5)C4)n3)cc12", "> 7.00"),
    ("CC(C)C[C@H]1CN(c2cnnc(-c3ccc4[nH]nc(C5CC5)c4c3)n2)CCN1", "6.00 to 7.00"),
    ("Cc1n[nH]c2ccc(-c3nncc(N4CCN[C@@H](CC(C)C)C4)n3)cc12", "> 7.00"),
    ("Clc1n[nH]c2ccc(-c3nncc(N4CCN[C@@H](Cc5ccccc5)C4)n3)cc12", "> 7.00"),
    ("CCC[C@H]1CN(c2nc(-c3ccc4[nH]nc(C)c4c3)nnc2CCc2ccccc2)CCN1", "> 7.00"),
    ("Cc1n[nH]c2ccc(-c3nnc(CCc4ccccc4)c(N4CCNCC4)n3)cc12", "> 7.00"),
    ("Cc1n[nH]c2ccc(-c3nncc(N4CCN[C@@H](COCc5ccccc5)C4)n3)cc12", "< 6.00"),
    ("Cc1n[nH]c2ccc(-c3nncc(N4CCN5CCCCC5C4)n3)cc12 (stereo not drawn)", "< 6.00"),
    ("Cc1n[nH]c2ccc(-c3nnc(N)c(N4CCN[C@H](c5ccccc5)C4)n3)cc12", "6.00 to 7.00"),
    ("Cc1n[nH]c2ccc(-c3nnc(N)c(O)n3)cc12", "< 6.00"),
    ("Cc1n[nH]c2ccc(-c3nnc(Cl)c(N4CCCC(N)C4)n3)cc12 (stereo not drawn)", "6.00 to 7.00"),
    ("Cc1n[nH]c2ccc(-c3nncc(N4CCNC(Cc5cccc(F)c5)C4)n3)cc12 (stereo not drawn)", "> 7.00"),
    ("Cc1n[nH]c2ccc(-c3nncc(N4CCN[C@@H](C(C)C)C4)n3)cc12", "> 7.00"),
    ("Cc1n[nH]c2ccc(-c3nnc(N)c(N4CCNC5(CCCC5)C4)n3)cc12", "6.00 to 7.00"),
    ("Cc1n[nH]c2ccc(-c3nnc(NCc4ccccc4)c(N4CCN[C@@H](C(C)C)C4)n3)cc12", "> 7.00"),
    ("Cc1n[nH]c2ccc(-c3nncc(N4CCNC(Cc5ccc(F)cc5)C4)n3)cc12 (stereo not drawn)", "> 7.00"),
    ("Cc1n[nH]c2ccc(-c3nncc(N4CCNCC4)n3)cc12", "6.00 to 7.00"),
    ("Cc1n[nH]c2ccc(-c3nncc(N4CCCC(CN)C4)n3)cc12 (stereo not drawn)", "< 6.00"),
    ("Cc1n[nH]c2ccc(-c3nncc(N4CCNC(Cc5ccccc5)(Cc5ccccc5)C4)n3)cc12", "6.00 to 7.00"),
]
